- protocol description: NCI Yeast Anticancer Drug Screen. Data for the sgs1 mgt1 strain (AID 161)
- cond: S. cerevisiae sgs1 mgt1 strain, at 50.0 µM (retest, dose inferred, filed as 5.0)
Compounds without any hit were thinned out: in the full panel of roughly 79,000, 15% have a hit. Active and inactive are the calls of the source. Rule as the data show it: active = growth inhibition above about 70%; inactive = the rest.
The reply should be one of these categories: Y for active, N for inactive

{"molecule": "CC(C)OP(=O)(OC(C)C)/C(Cl)=N/Nc1ccc([N+](=O)[O-])cc1", "classification": "Y"}
{"molecule": "NNc1ccccc1-c1nc2ccccc2[nH]1", "classification": "N"}
{"molecule": "CC(C)C(c1ccccc1)c1ccccc1", "classification": "N"}
{"molecule": "C[N+](C)([O-])CCCNc1c2ccccc2nc2cccc([N+](=O)[O-])c12", "classification": "Y"}
{"molecule": "C/C(=N\\OCC(O)CNCCSCc1ccccc1)c1ccccc1Cl (configuration not stated)", "classification": "N"}

Task item: Would you mind telling me which call this test gave `CCOc1ccc2nc3ccccc3c(N)c2c1` ?
Reply: Y

Task item: Would you mind telling me which call this test gave `S=C(NCc1ccccn1)N/N=C/c1ccccn1` ?
Reply: Y
